- Test system: HCT-116 cell line
- Protocol Details: Inhibition of cell growth, MTT tetrazolium salt assay
- Type: cell-based
- Assay Conditions: HCT-116 cells, 0.25 μM compound
- Procedure: Inhibition of cell growth was measured using the tetrazolium salt assay, which is based on the ability of viable cells to reduce 3-(4,5-dimethylthiazol-2-yl)-2,5-[2H]-diphenyltetrazolium bromide (MTT) to formazan (Mossman, Journal of Immunological Methods, 65, (1983), pp. 55-58). The water-insoluble purple formazan product was then detected spectrophotometrically. The HCT-116 cell line was used as a representative cancer cell line and grown in 96-well plates. […]
Measured Parameter: HCT-116 % Inhibition at 0.25 μM (%)
# number only, unit % dropped from output

Under HCT-116 cell line, report HCT-116 % Inhibition at 0.25 μM for CSCCC(CO)NC(=O)c1ccc(Nc2nc(N)c(C(=O)c3c(F)cccc3F)s2)cc1 (stereo not shown)
51

Under HCT-116 cell line, report HCT-116 % Inhibition at 0.25 μM for COc1ccc(CCN(C)C(=O)c2ccc(Nc3nc(N)c(C(=O)c4c(F)cccc4F)s3)cc2)cc1OC
48

Under HCT-116 cell line, report HCT-116 % Inhibition at 0.25 μM for CCN(CC)CCN(C)C(=O)c1ccc(Nc2nc(N)c(C(=O)c3c(F)cccc3F)s2)cc1
46

Under HCT-116 cell line, report HCT-116 % Inhibition at 0.25 μM for Nc1nc(Nc2ccc(C(=O)Nc3cccc(F)c3)cc2)sc1C(=O)c1c(F)cccc1F
62

Under HCT-116 cell line, report HCT-116 % Inhibition at 0.25 μM for Nc1nc(Nc2ccc(C(=O)Nc3ccc(OC(F)(F)F)cc3)cc2)sc1C(=O)c1c(F)cccc1F
52

Under HCT-116 cell line, report HCT-116 % Inhibition at 0.25 μM for Nc1nc(Nc2ccc(C(=O)NCCCN(CCO)CCO)cc2)sc1C(=O)c1c(F)cccc1F
48

Under HCT-116 cell line, report HCT-116 % Inhibition at 0.25 μM for Nc1nc(Nc2ccc(C(=O)NCC3COc4ccccc4O3)cc2)sc1C(=O)c1c(F)cccc1F (stereo not shown)
71

Under HCT-116 cell line, report HCT-116 % Inhibition at 0.25 μM for Nc1nc(Nc2ccc(C(=O)Nc3cccc(Br)c3)cc2)sc1C(=O)c1c(F)cccc1F
32

Under HCT-116 cell line, report HCT-116 % Inhibition at 0.25 μM for Nc1nc(Nc2ccc(C(=O)NCc3ccncc3)cc2)sc1C(=O)c1c(F)cccc1F
56

Under HCT-116 cell line, report HCT-116 % Inhibition at 0.25 μM for Cc1cccc(CNC(=O)c2ccc(Nc3nc(N)c(C(=O)c4c(F)cccc4F)s3)cc2)c1
73

Under HCT-116 cell line, report HCT-116 % Inhibition at 0.25 μM for Nc1nc(Nc2ccc(C(=O)NC3CCC(O)CC3)cc2)sc1C(=O)c1c(F)cccc1F (stereo not shown)
52

Under HCT-116 cell line, report HCT-116 % Inhibition at 0.25 μM for Nc1nc(Nc2ccc(C(=O)NCCOCCO)cc2)sc1C(=O)c1c(F)cccc1F
53

Under HCT-116 cell line, report HCT-116 % Inhibition at 0.25 μM for C=CCNC(=O)c1ccc(Nc2nc(N)c(C(=O)c3c(F)cccc3F)s2)cc1
52

###

- Assay Target: human CDK4/cyclin D3 (Homo sapiens, UniProt P11802)
- Construct: made in house; host or cells: insect cells co-infected with baculovirus vectors
- Sequence (P11802 whole entry): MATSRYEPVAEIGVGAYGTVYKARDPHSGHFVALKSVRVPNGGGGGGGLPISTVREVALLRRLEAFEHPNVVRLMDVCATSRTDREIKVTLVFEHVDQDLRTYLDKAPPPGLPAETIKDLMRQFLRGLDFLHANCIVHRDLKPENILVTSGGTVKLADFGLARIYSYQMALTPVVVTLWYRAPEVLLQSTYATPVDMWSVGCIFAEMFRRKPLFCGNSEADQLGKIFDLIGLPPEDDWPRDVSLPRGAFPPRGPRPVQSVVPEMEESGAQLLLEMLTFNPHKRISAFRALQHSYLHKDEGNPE
- Sequence (P30281 1-264 partner limits assumed): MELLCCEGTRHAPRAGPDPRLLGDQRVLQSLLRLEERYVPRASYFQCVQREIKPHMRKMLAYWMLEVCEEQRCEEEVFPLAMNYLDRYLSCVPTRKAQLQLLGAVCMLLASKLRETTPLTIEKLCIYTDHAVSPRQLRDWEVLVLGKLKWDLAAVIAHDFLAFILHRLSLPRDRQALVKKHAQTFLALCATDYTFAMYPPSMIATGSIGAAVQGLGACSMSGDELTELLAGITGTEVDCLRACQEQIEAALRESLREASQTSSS
- Protocol Details: Inhibition of CDK4/cyclin D retinoblastoma kinase activity (Ki; % inhibition)
- Type: biochemical
- Assay Conditions: at 0.03 μM
Measured CDK4 % Inhibition at 0.03 μM of individual entries
# number only, unit % dropped from output

Sample answers from the record:
Molecular String | Endpoint Value
CN(C)CCN(C)C(=O)c1ccc(Nc2nc(N)c(C(=O)c3c(F)cccc3F)s2)cc1 | 19
CCOc1cccc(NC(=O)c2ccc(Nc3nc(N)c(C(=O)c4c(F)cccc4F)s3)cc2)c1 | 1
CC(C)CN(C)C(=O)c1ccc(Nc2nc(N)c(C(=O)c3c(F)cccc3F)s2)cc1 | 12

Give CDK4 % Inhibition at 0.03 μM for the following compound: COc1cc(NC(=O)c2ccc(Nc3nc(N)c(C(=O)c4c(F)cccc4F)s3)cc2)cc(OC)c1
0
